Every entry's value here was drawn from the supplement of paper PMC9112550.

# Test system: Escherichia coli TOP10
# ASSAY TEXT: shrunken log2 fold change of peptide-encoding DNA abundance (4.5 h post-induction vs induction); higher = less antimicrobial activity (less host growth inhibition)
# MEASUREMENT CONDITIONS: time post-induction: 4.5 h; library: site-saturation at positions 5, 18, 19, 20
The reader will find reported shrunken log2 fold change values listed item by item below.
Give the figure by itself; no unit, no explanation.

RRIRWRPPRLPRPRPRPVYAPRP; 0.31
RRIRHRPPRLPRPRPRPNTTPRP; -0.019
RRIRARPPRLPRPRPRPGWCPRP; 0.465
RRIRMRPPRLPRPRPRPTNKPRP; 0.111
RRIRVRPPRLPRPRPRPQMPPRP; 0.204
RRIRKRPPRLPRPRPRPEGPPRP; 0.447
RRIRERPPRLPRPRPRPVDRPRP; 0.0364
RRIRQRPPRLPRPRPRPEFTPRP; -0.0117

Look up shrunken log2 fold change for this sequence: `RRIRQRPPRLPRPRPRPLMTPRP`
0.0563

For `RRIRQRPPRLPRPRPRPLIHPRP` then?
-0.708

For `RRIRKRPPRLPRPRPRPLREPRP` then?
0.718

For `RRIRPRPPRLPRPRPRPVKYPRP` then?
-0.303

For `RRIRPRPPRLPRPRPRPPAMPRP` then?
0.447

For `RRIRDRPPRLPRPRPRPQGMPRP` then?
-0.00277

For `RRIRERPPRLPRPRPRPPFYPRP` then?
-0.367

----------
# Test system: Escherichia coli TOP10
# ASSAY TEXT: shrunken log2 fold change of peptide-encoding DNA abundance (4.5 h post-induction vs induction); higher = less antimicrobial activity (less host growth inhibition)
# MEASUREMENT CONDITIONS: time post-induction: 4.5 h; library: site-saturation at positions 5, 18, 19, 20
The reader will find reported shrunken log2 fold change values listed item by item below.
Give the figure by itself; no unit, no explanation.

Solved cases below.
RRIRCRPPRLPRPRPRPQQYPRP; -0.709
RRIRSRPPRLPRPRPRPGTDPRP; -0.0659
RRIRFRPPRLPRPRPRPDNDPRP; -0.188

Look up shrunken log2 fold change for this sequence: `RRIRRRPPRLPRPRPRPRMFPRP`
0.556

For `RRIRMRPPRLPRPRPRPNQCPRP` then?
-0.198

For `RRIRCRPPRLPRPRPRPFSSPRP` then?
-0.24

For `RRIRLRPPRLPRPRPRPAEAPRP` then?
0.0653

For `RRIRGRPPRLPRPRPRPYAHPRP` then?
0.023

For `RRIRYRPPRLPRPRPRPWIPPRP` then?
-0.0119

For `RRIRTRPPRLPRPRPRPTISPRP` then?
-0.488

For `RRIRKRPPRLPRPRPRPHRFPRP` then?
-0.0599

For `RRIRRRPPRLPRPRPRPPDCPRP` then?
0.326

For `RRIRPRPPRLPRPRPRPCKAPRP` then?
-0.00218

For `RRIRYRPPRLPRPRPRPFKFPRP` then?
0.0599

For `RRIRSRPPRLPRPRPRPYTYPRP` then?
-0.0783

For `RRIRIRPPRLPRPRPRPRNFPRP` then?
-0.283

For `RRIRCRPPRLPRPRPRPTIHPRP` then?
-0.883

For `RRIRIRPPRLPRPRPRPPWRPRP` then?
0.507

For `RRIRSRPPRLPRPRPRPGLHPRP` then?
0.186

For `RRIRMRPPRLPRPRPRPPQSPRP` then?
0.721

For `RRIRGRPPRLPRPRPRPHQYPRP` then?
-0.226

For `RRIRFRPPRLPRPRPRPCGSPRP` then?
0.06

For `RRIRWRPPRLPRPRPRPNPWPRP` then?
0.265

For `RRIRARPPRLPRPRPRPIFTPRP` then?
0.165

For `RRIRMRPPRLPRPRPRPNCTPRP` then?
-0.15

For `RRIRFRPPRLPRPRPRPSDRPRP` then?
-0.853

----------
# System: Escherichia coli TOP10
# ASSAY TEXT: shrunken log2 fold change of peptide-encoding DNA abundance (4.5 h post-induction vs induction); higher = less antimicrobial activity (less host growth inhibition)
# MEASUREMENT CONDITIONS: time post-induction: 4.5 h; library: site-saturation at positions 5, 18, 19, 20
# if value of shrunken log2 fold change reaches 0.03, tag criterion met; if it stays below, tag criterion not met

RRIRYRPPRLPRPRPRPEVPPRP; criterion not met
RRIRNRPPRLPRPRPRPDRQPRP; criterion not met
RRIRPRPPRLPRPRPRPFQMPRP; criterion not met
RRIRVRPPRLPRPRPRPQTRPRP; criterion met
RRIRYRPPRLPRPRPRPFLQPRP; criterion not met

Is reported shrunken log2 fold change greater than or equal to 0.03 here: `RRIRDRPPRLPRPRPRPPCFPRP`
criterion met

For `RRIRDRPPRLPRPRPRPGTWPRP` then?
criterion met

For `RRIRGRPPRLPRPRPRPHQIPRP` then?
criterion met

----------
# System: Escherichia coli TOP10
# ASSAY TEXT: shrunken log2 fold change of peptide-encoding DNA abundance (4.5 h post-induction vs induction); higher = less antimicrobial activity (less host growth inhibition)
# MEASUREMENT CONDITIONS: time post-induction: 4.5 h; library: site-saturation at positions 5, 18, 19, 20
# if value of shrunken log2 fold change reaches -0.02, tag fulfilled; if it stays below, tag not fulfilled

RRIRGRPPRLPRPRPRPNAWPRP; fulfilled
RRIRQRPPRLPRPRPRPRFHPRP; not fulfilled
RRIRDRPPRLPRPRPRPAKSPRP; fulfilled

Is reported shrunken log2 fold change greater than or equal to -0.02 here: `RRIRARPPRLPRPRPRPVYQPRP`
not fulfilled

For `RRIRLRPPRLPRPRPRPMSTPRP` then?
not fulfilled

For `RRIRNRPPRLPRPRPRPPLEPRP` then?
fulfilled

For `RRIRLRPPRLPRPRPRPFTWPRP` then?
not fulfilled

For `RRIRQRPPRLPRPRPRPFVGPRP` then?
not fulfilled

For `RRIRRRPPRLPRPRPRPILTPRP` then?
fulfilled

----------
# Tested on: Escherichia coli TOP10
# ASSAY TEXT: shrunken log2 fold change of peptide-encoding DNA abundance (4.5 h post-induction vs induction); higher = less antimicrobial activity (less host growth inhibition)
# MEASUREMENT CONDITIONS: time post-induction: 4.5 h; library: site-saturation at positions 5, 18, 19, 20
MEASUREMENT NAME: shrunken log2 fold change
Give the figure by itself; no unit, no explanation.

Solved cases below.
RRIRERPPRLPRPRPRPNEKPRP; -0.0183
RRIRFRPPRLPRPRPRPLFVPRP; -0.424
RRIRFRPPRLPRPRPRPFQMPRP; -0.647

Look up shrunken log2 fold change for this sequence: `RRIRHRPPRLPRPRPRPNQWPRP`
-0.227

For `RRIRHRPPRLPRPRPRPSAKPRP` then?
-0.324

For `RRIRPRPPRLPRPRPRPQEGPRP` then?
-0.259

For `RRIRRRPPRLPRPRPRPVRQPRP` then?
0.874

For `RRIRHRPPRLPRPRPRPMSYPRP` then?
-0.0194

For `RRIRIRPPRLPRPRPRPTANPRP` then?
-0.149

For `RRIRYRPPRLPRPRPRPGKHPRP` then?
0.0354

For `RRIRDRPPRLPRPRPRPAFNPRP` then?
-0.223

For `RRIRPRPPRLPRPRPRPFEPPRP` then?
0.232

For `RRIRMRPPRLPRPRPRPNRVPRP` then?
-0.144

For `RRIRNRPPRLPRPRPRPHGFPRP` then?
0.0815

For `RRIRNRPPRLPRPRPRPKLRPRP` then?
0.00281

----------
# Tested on: Escherichia coli TOP10;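 further: peptides expressed intracellularly from a pBAD plasmid library in pooled LB shake-flask culture, induced with 0.3% L-arabinose, DNA abundance read by NGS, three biological replicates, DESeq2 with apeglm shrinkage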
# ASSAY TEXT: shrunken log2 fold change of peptide-encoding DNA abundance (4.5 h post-induction vs induction); higher = less antimicrobial activity (less host growth inhibition)
# MEASUREMENT CONDITIONS: time post-induction: 4.5 h; library: site-saturation at positions 5, 18, 19, 20
MEASUREMENT NAME: shrunken log2 fold change
Give the figure by itself; no unit, no explanation.

RRIRYRPPRLPRPRPRPQLQPRP; -0.137

Look up shrunken log2 fold change for this sequence: `RRIRNRPPRLPRPRPRPAVEPRP`
-0.0887

For `RRIRNRPPRLPRPRPRPVERPRP` then?
0.265

For `RRIRPRPPRLPRPRPRPMEAPRP` then?
0.177

For `RRIRHRPPRLPRPRPRPFFDPRP` then?
-0.642

For `RRIRNRPPRLPRPRPRPYCPPRP` then?
-0.187

For `RRIRPRPPRLPRPRPRPEYGPRP` then?
-0.167

For `RRIRQRPPRLPRPRPRPMNPPRP` then?
-0.0843

For `RRIRMRPPRLPRPRPRPMLCPRP` then?
0.049

For `RRIRCRPPRLPRPRPRPHIEPRP` then?
-0.856
